Quick reference: log10 IC50 of the listed items.
biological target: Bifunctional dihydrofolate reductase-thymidylate synthase [1-238,S58R,S117N] (Plasmodium vivax, UniProt O02604, S117N/S58R); construct: 1-238; assay: Inhibitor Screening Using Bacterial System (IC50) and Measurement of Inhibition Constant (Ki)
Sequence (O02604 1-238, looked up, stated change not applied): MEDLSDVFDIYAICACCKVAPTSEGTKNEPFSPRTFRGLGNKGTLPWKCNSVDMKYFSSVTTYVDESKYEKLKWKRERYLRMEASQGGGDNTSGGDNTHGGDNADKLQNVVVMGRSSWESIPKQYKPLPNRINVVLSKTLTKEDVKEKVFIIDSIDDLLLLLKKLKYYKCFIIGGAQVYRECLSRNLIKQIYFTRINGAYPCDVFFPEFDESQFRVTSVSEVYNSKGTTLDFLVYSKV
measured.property: log10 IC50 (log10 of the value in µM)

smiles.string: CCc1nc(N)nc(N)c1-c1ccc(Cl)c(Cl)c1
log10 IC50: 1.02

smiles.string: Nc1nc(N)c(-c2cccc(Cl)c2)c(CCCc2ccccc2)n1
log10 IC50: 1.14

smiles.string: CCCCCCc1nc(N)nc(N)c1-c1ccccc1
log10 IC50: 0.48

smiles.string: Cc1nc(N)nc(N)c1-c1cccc(Cl)c1
log10 IC50: 0.30

smiles.string: CCc1nc(N)nc(N)c1-c1ccc(Br)cc1
log10 IC50: 1.48

smiles.string: CCc1nc(N)nc(N)c1-c1ccc(C)cc1
log10 IC50: 1.09

smiles.string: Nc1nc(N)c(-c2cccc(Cl)c2)c(CCOCCCOc2ccccc2)n1
log10 IC50: 1.15

smiles.string: CC(C)Cc1nc(N)nc(N)c1-c1ccc(Cl)cc1
log10 IC50: 1.26

smiles.string: CCc1nc(N)nc(N)c1-c1ccc(Cl)cc1
log10 IC50: 1.30

smiles.string: Cc1nc(N)nc(N)c1-c1ccccc1
log10 IC50: 1.11

smiles.string: CCc1nc(N)nc(N)c1-c1cccc(Cl)c1
log10 IC50: -0.52

smiles.string: Nc1nc(N)c(-c2ccccc2)c(CCCc2ccccc2)n1
log10 IC50: 0.44

smiles.string: CCc1nc(N)nc(N)c1-c1ccccc1
log10 IC50: 0.18

* * *

molecular target: Bifunctional dihydrofolate reductase-thymidylate synthase (Plasmodium vivax); assay: Inhibitor Screening Using Bacterial System (IC50) and Measurement of Inhibition Constant (Ki); details: pH 7; 25 °C
Sequence (O02604 whole entry): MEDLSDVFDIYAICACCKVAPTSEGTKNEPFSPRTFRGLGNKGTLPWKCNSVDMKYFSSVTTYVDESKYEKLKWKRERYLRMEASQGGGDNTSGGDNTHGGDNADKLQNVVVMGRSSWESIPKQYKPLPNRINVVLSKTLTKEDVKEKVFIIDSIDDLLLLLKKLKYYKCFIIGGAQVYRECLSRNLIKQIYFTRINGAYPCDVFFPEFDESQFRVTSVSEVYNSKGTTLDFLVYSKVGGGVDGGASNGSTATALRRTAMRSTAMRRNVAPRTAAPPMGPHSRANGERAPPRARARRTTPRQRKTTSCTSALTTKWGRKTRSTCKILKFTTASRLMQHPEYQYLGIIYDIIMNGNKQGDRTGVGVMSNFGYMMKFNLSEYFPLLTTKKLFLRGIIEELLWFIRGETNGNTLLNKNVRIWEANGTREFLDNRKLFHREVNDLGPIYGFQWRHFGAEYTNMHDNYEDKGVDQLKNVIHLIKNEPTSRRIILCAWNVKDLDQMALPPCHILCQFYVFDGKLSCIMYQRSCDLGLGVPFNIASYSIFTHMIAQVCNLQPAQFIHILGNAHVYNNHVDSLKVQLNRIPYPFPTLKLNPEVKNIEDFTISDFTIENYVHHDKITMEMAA
pKi: −log10 of the molar value.
Response key: Satisfied means pKi >= 9; Not satisfied means pKi < 9.

smiles.string: CCc1nc(N)nc(N)c1-c1ccc(C)cc1
assigned.label: Satisfied
--
smiles.string: CCc1nc(N)nc(N)c1-c1ccc(Cl)c(Cl)c1
assigned.label: Satisfied
--
smiles.string: CCc1nc(N)nc(N)c1-c1ccccc1
assigned.label: Satisfied
--
smiles.string: CCCCCCCCCc1nc(N)nc(N)c1-c1ccc(Cl)cc1
assigned.label: Not satisfied
--
smiles.string: CCc1nc(N)nc(N)c1-c1cccc(Cl)c1
assigned.label: Satisfied
--
smiles.string: Nc1nc(N)c(-c2ccccc2)c(CCCc2ccccc2)n1
assigned.label: Satisfied
--
smiles.string: CCc1nc(N)nc(N)c1-c1ccc(Cl)cc1
assigned.label: Satisfied
--
smiles.string: Nc1ncc(-c2ccc(Cl)cc2)c(N)n1
assigned.label: Not satisfied
--
smiles.string: Cc1nc(N)nc(N)c1-c1ccccc1
assigned.label: Not satisfied

* * *

target: Bifunctional dihydrofolate reductase-thymidylate synthase (Plasmodium vivax); experiment: Inhibitor Screening Using Bacterial System (IC50) and Measurement of Inhibition Constant (Ki); settings: pH 7; 25 °C
Quick reference: IC50 of the listed items.

smiles.string: CCc1nc(N)nc(N)c1-c1ccc(C)cc1
subject.of.test: Bifunctional dihydrofolate reductase-thymidylate synthase (Plasmodium vivax)
units.text: µM
IC50: 0.14
--
smiles.string: COC(=O)CCCc1nc(N)nc(N)c1-c1ccc(Cl)cc1
subject.of.test: Bifunctional dihydrofolate reductase-thymidylate synthase (Plasmodium vivax)
units.text: µM
IC50: 0.2
--
smiles.string: CCc1nc(N)nc(N)c1-c1cccc(Cl)c1
subject.of.test: Bifunctional dihydrofolate reductase-thymidylate synthase (Plasmodium vivax)
units.text: µM
IC50: 0.36
--
smiles.string: Cc1nc(N)nc(N)c1-c1cccc(Cl)c1
subject.of.test: Bifunctional dihydrofolate reductase-thymidylate synthase (Plasmodium vivax)
units.text: µM
IC50: 2.12
--
smiles.string: Cc1nc(N)nc(N)c1-c1ccc(Cl)cc1
subject.of.test: Bifunctional dihydrofolate reductase-thymidylate synthase (Plasmodium vivax)
units.text: µM
IC50: 1.95
--
smiles.string: Cc1nc(N)nc(N)c1-c1ccccc1
subject.of.test: Bifunctional dihydrofolate reductase-thymidylate synthase (Plasmodium vivax)
units.text: µM
IC50: 11.3
--
smiles.string: CCc1nc(N)nc(N)c1-c1ccc(Cl)cc1
subject.of.test: Bifunctional dihydrofolate reductase-thymidylate synthase (Plasmodium vivax)
units.text: µM
IC50: 0.18
--
smiles.string: CCc1nc(N)nc(N)c1-c1ccc(OC)cc1
subject.of.test: Bifunctional dihydrofolate reductase-thymidylate synthase (Plasmodium vivax)
units.text: µM
IC50: 0.35

Numbers sourced from BindingDB's records for doi:10.1128/AAC.00448-06.
